- ASSAY_TARGET: UniProtKB P42336
- Sequence (P42336 whole entry, looked up): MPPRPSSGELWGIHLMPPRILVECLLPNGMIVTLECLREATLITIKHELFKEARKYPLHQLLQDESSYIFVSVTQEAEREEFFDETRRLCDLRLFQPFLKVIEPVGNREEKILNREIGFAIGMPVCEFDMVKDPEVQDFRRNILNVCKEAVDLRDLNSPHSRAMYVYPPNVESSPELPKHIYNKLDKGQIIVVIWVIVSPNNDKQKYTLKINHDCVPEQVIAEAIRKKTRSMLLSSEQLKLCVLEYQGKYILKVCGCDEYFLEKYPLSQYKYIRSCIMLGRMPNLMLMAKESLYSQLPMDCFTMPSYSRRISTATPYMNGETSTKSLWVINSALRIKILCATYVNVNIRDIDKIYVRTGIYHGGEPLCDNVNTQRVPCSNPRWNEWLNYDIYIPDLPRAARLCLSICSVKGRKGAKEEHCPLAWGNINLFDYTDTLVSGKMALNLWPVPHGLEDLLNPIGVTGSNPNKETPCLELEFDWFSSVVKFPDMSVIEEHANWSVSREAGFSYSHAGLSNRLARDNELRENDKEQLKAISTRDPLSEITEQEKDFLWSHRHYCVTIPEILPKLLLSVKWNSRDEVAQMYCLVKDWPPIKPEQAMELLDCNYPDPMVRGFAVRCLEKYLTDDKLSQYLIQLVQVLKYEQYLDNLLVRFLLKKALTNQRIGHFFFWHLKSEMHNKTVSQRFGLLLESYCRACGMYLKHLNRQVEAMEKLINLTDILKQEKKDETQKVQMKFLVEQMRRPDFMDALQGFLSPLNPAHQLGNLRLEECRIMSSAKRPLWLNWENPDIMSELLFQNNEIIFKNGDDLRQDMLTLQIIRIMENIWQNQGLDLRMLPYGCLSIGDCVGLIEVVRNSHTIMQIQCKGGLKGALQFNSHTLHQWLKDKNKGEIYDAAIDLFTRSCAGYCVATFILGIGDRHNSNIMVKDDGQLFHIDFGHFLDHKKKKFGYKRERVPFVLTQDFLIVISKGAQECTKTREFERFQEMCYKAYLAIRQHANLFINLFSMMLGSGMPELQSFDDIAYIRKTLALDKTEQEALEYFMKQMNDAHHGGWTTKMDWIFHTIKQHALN
Entries annotated with measured IC50

[Q] # get_value(readout='IC50', item= O=C(c1nc2c(s1)CCOc1cc(-c3cn[nH]c3)ccc1-2)N1CC(F)(F)C1 )
[A] < 1 µM

[Q] What IC50 value was documented for this compound, CC(C)n1cnnc1-c1nc2c(s1)CCOc1cc(C(=O)Nc3ccon3)ccc1-2 ?
[A] < 1 µM

[Q] Query (compound): CN1CCN(CCNc2ccc3c(n2)-c2sc(-c4ncnn4-c4ccc(F)cc4F)cc2CCO3)CC1 ; field requested: IC50
[A] < 1 µM

[Q] For CC(C)n1ncnc1-c1nc2c(s1)CCOc1cc(C3CN(CC(=O)NCC(C)(C)O)C3)ccc1-2 , what is its reported IC50?
[A] < 1 µM

[Q] Quick check: IC50 of OCCn1cc(-c2ccc3c(c2)OCCc2sc(-c4ncnn4CC(F)(F)F)nc2-3)cn1 ?
[A] < 1 µM

[Q] Need IC50 of COc1ncccc1-c1ccc2c(c1)-c1nc(-c3ncnn3C(C)C)sc1CCO2 , thanks.
[A] < 1 µM

[Q] Tell me the measured IC50 of CC(C)N(CCO)C(=O)c1nc2c(s1)CCOc1ccc(-c3cnn(CC(C)(C)O)c3)cc1-2 , please.
[A] < 1 µM

[Q] Entry CN1CCC(CNc2ccc3c(n2)-c2sc(-c4ncnn4-c4ccc(F)cc4F)cc2CCO3)C1 (stereo unspecified) has what IC50?
[A] < 1 µM

Continuing:
[Q] Requested field: IC50. Item: CC(C)n1nc(N)nc1-c1nc2c(s1)CCOc1ccc(F)cc1-2
[A] < 1 µM

[Q] Give the measured IC50 of CC(=O)Nc1ccc(-c2ccc3c(n2)-c2sc(-c4ncnn4-c4ccc(F)cc4F)cc2CCO3)cn1 .
[A] < 1 µM

[Q] Entry CC(C)N(CCO)C(=O)c1nc2c(s1)CCOc1ccc(-c3cnn(CCO)c3)cc1-2 has what IC50?
[A] < 1 µM
